Test system: HBV
Experiment: Anti-HBV activity: intracellular HBV DNA by quantitative PCR in HepG2.2.15 cells
Type: cell-based, hepatitis B virus
Details: Hepatitis B virus, 168 h; HepG2.2.15 cells, intracellular HBV DNA, day 7 after addition; read-out: EC50 (50% effective concentration), anti-HBV activity
Readout kind: pEC50
pEC50 field: float, defined as -log10 of concentration (mol/L).

Which value of pEC50 has been reported for Nc1nc(F)nc2c1ncn2[C@@H]1O[C@H](CO)C(O)C1F (some centres unmarked) [Example 1] in the records? 8.80

---

Test: Cytotoxicity test (WST-1) in HepG2 NTCP-myc cells
Assay type: cell-based
Conditions: human, 7 days culture, read-out: CC50 (50% cytotoxic concentration)
Readout kind: CC50 at 7 days

Which value of CC50 at 7 days has been reported for Nc1nc(F)nc2c1ncn2[C@@H]1O[C@H](CO)C(O)C1F (stereo partly shown) [Example 1] in the records? 337 µM
